Source of measurements: PubChem BioAssay AID1159580

- PROTOCOL_DESCRIPTION: chemical genetic growth profiling, strain panel (AID 1159580);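 further: tested at 20 µM; growth read once vehicle control cultures reached saturation at 30 °C; 1 = growth at the plate median or of vehicle wells; lower values mean less growth of the strain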
- RECORDED_CONDITIONS: S. cerevisiae deletion strains, growth OD, locus YDL005C, strain med2, active compounds read low
In all, about 5,500 compounds went through this assay and about 2,000 (36%) were called active. Inconclusive results (about 18%) are left out. The list shows a part of the results.
Binary label based on normalized growth with cut-off 1: below gives True, not below gives False.

Request: Here's an entry: OC1(c2ccc(Cl)c(C(F)(F)F)c2)CCN(CCCC(c2ccc(F)cc2)c2ccc(F)cc2)CC1 . Is its normalized growth below 1?
Result: True

Request: Here's an entry: O=C(CCCN1CCC(O)(c2ccc(Cl)cc2)CC1)c1ccc(F)cc1 . Is its normalized growth below 1?
Result: False

Request: Here's an entry: C[C@H]1[C@H](C)CC[C@]2(C(=O)O)CC[C@]3(C)C(=CCC4[C@@]5(C)C[C@@H](O)[C@H](O)[C@@](C)(CO)C5CC[C@]43C)[C@H]12 (some centres undefined) . Is its normalized growth below 1?
Result: False

---

Task for the reader: assign each of the following compounds its reported normalized growth.
- PROTOCOL_DESCRIPTION: chemical genetic growth profiling, strain panel (AID 1159580)
- RECORDED_CONDITIONS: S. cerevisiae deletion strains, growth OD, locus YCL061C, strain MRC1, active compounds read low
The campaign covered roughly 5,500 compounds. About 2,000 (36%) were called active. Another 18% or so got no clear call; they are omitted. The list shows a part of the results.
Simply state the number, no unit and no words.

Input CC(C)C[C@@H](NC(=O)OCC1c2ccccc2-c2ccccc21)C(=O)O . Output normalized growth: 1

Input CCCc1nn(C)c2c(=O)[nH]c(-c3cc(S(=O)(=O)N4CCN(C)CC4)ccc3OCC)nc12 . Output normalized growth: 0.981

Input Oc1ccc2c3c1OC1[C@@H](O)CC[C@@]4(O)[C@@H](C2)N(CC2CCC2)CC[C@]314 (some centres undefined) . Output normalized growth: 1

Input CCCc1nc(C)c2c(=O)[nH]c(-c3cc(S(=O)(=O)N4CCN(CC)CC4)ccc3OCC)nn12 . Output normalized growth: 0.952

---

Task for the reader: assign each of the following molecules its reported normalized growth.
- PROTOCOL_DESCRIPTION: chemical genetic growth profiling, strain panel (AID 1159580);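 further: tested at 20 µM; growth read once vehicle control cultures reached saturation at 30 °C; 1 = growth at the plate median or of vehicle wells; lower values mean less growth of the strain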
- RECORDED_CONDITIONS: S. cerevisiae deletion strains, growth OD, locus YMR125W, strain sto1, active compounds read low
The whole screen tested about 5,500 compounds, of which about 2,000 (36%) were called active. Another 18% or so got no clear call; they are omitted. Some of the results follow.
Simply state the number, no unit and no words.

Input COc1cc(-c2cc(=O)c3c(O)c(OC)c(OC)c(OC)c3o2)cc(OC)c1OC . Output normalized growth: 0.999

Input Nc1ccc(S(=O)(=O)Nc2ncccn2)cc1 . Output normalized growth: 0.955

Input Cc1ccc(-c2nc3ccc(C)cn3c2CC(=O)N(C)C)cc1 . Output normalized growth: 1.03

Input COc1ccc(-c2cc(=O)c3c(O)c(OC)c(OC)c(OC)c3o2)cc1OC . Output normalized growth: 1.01

Input CC1CCCC(C)N1NC(=O)c1ccc(Cl)c(S(N)(=O)=O)c1 (stereo not given) . Output normalized growth: 1.01

Input NC(=O)c1ccc([N+](=O)[O-])cc1Cl . Output normalized growth: 0.973

Input CC1Cc2ccccc2N1NC(=O)c1ccc(Cl)c(S(N)(=O)=O)c1 (stereo not given) . Output normalized growth: 1.01

Input Cc1c(C(N)=O)cc([N+](=O)[O-])cc1[N+](=O)[O-] . Output normalized growth: 0.962

Input COC(=O)C[C@H]1C(C)(C)[C@@H](O)[C@@H]2CC3=C4CC(O)O[C@@H](c5ccoc5)[C@]4(C)CCC3[C@@]1(C)C2=O (stereo not given in full) . Output normalized growth: 1.02

Input NC(=O)c1cc([N+](=O)[O-])cc([N+](=O)[O-])c1 . Output normalized growth: 1.01

---

- PROTOCOL_DESCRIPTION: chemical genetic growth profiling, strain panel (AID 1159580);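 further: tested at 20 µM; growth read once vehicle control cultures reached saturation at 30 °C; 1 = growth at the plate median or of vehicle wells; lower values mean less growth of the strain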
- RECORDED_CONDITIONS: S. cerevisiae deletion strains, growth OD, locus YHR129C, strain ARP1
Out of some 5,500 compounds screened, about 2,000 (36%) were called active. Inconclusive results (about 18%) are left out. Cut-off read from the data, not from the text of the source: active = normalized growth mostly below about 0.91 (no sharp cut-off); inconclusive = no clear call, values can overlap the other calls; inactive = mostly above about 0.92. This is one part of the list.
Select the correct class. Options are yes = active, no = inactive and nothing else.

Request: Give the logged outcome of this assay for the following compound: CC1(C)O[C@@H]2CC3C4C[C@H](F)C5=CC(=O)CC[C@]5(C)C4[C@@H](O)C[C@]3(C)[C@]2(C(=O)CO)O1 (some centres undefined)
Result: no

Request: Give the logged outcome of this assay for the following compound: COc1cc(C(=O)O)cc(OC)c1OC
Result: no

Request: Give the logged outcome of this assay for the following compound: O=C(CCCN1CCC(O)(c2ccc(Cl)cc2)CC1)c1ccc(F)cc1
Result: no

Request: Give the logged outcome of this assay for the following compound: CN(C)C(=O)C(CCN1CCC(O)(c2ccc(Cl)cc2)CC1)(c1ccccc1)c1ccccc1
Result: no

Request: Give the logged outcome of this assay for the following compound: C[C@@H]1CC[C@@]23CCC4(C)[C@@](C=CC5[C@@]6(C)CCC(=O)C(C)(C)C6CC[C@]54C)(OC2=O)C3[C@H]1C (some centres undefined)
Result: no

Request: Give the logged outcome of this assay for the following compound: COC(=O)[C@H]1[C@H]2C[C@H]3c4[nH]c5cc(OC)ccc5c4CCN3C[C@H]2C[C@@H](OC(=O)c2cc(OC)c(OC)c(OC)c2)[C@@H]1OC
Result: no

Request: Give the logged outcome of this assay for the following compound: O=C(O)c1ccccc1O
Result: no

Request: Give the logged outcome of this assay for the following compound: C[C@@H]1CC[C@@]23CCC4(C)[C@@](C=CC5[C@@]6(C)CC[C@H](O)C(C)(C)C6CC[C@]54C)(OC2=O)C3[C@H]1C (some centres undefined)
Result: no

Request: Give the logged outcome of this assay for the following compound: CC(C)=CC1C(CO)C1(C)C (centres undefined)
Result: no

Request: Give the logged outcome of this assay for the following compound: O=c1c(O)cc([C@H]2Oc3cc(O)cc(O)c3C[C@H]2O)cc2c([C@H]3Oc4cc(O)cc(O)c4C[C@H]3O)cc(O)c(O)c12
Result: no

Request: Give the logged outcome of this assay for the following compound: CC(=O)N1CCN(c2ccc(OCC3CO[C@](Cn4ccnc4)(c4ccc(Cl)cc4Cl)O3)cc2)CC1 (some centres undefined)
Result: yes

Request: Give the logged outcome of this assay for the following compound: CNC[C@H](O)c1cccc(O)c1
Result: no

Request: Give the logged outcome of this assay for the following compound: CCOC(=O)CC(SP(=S)(OC)OC)C(=O)OCC (centres undefined)
Result: no

Request: Give the logged outcome of this assay for the following compound: Cc1ccc(C(C)C)c(O)c1C(=O)O
Result: no

Request: Give the logged outcome of this assay for the following compound: CO[C@@H]1C[C@H](O[C@H]2CC[C@]3(C)C4CC[C@]5(C)[C@@H](C6=CC(=O)OC6)CC[C@]5(O)[C@@H]4CC[C@]3(O)C2)O[C@H](C)[C@@H]1O (some centres undefined)
Result: no

Request: Give the logged outcome of this assay for the following compound: CC(C)(C)NCC(O)COc1cccc2c1C[C@H](O)[C@H](O)C2 (some centres undefined)
Result: no

Request: Give the logged outcome of this assay for the following compound: CSCCC(N)C(=O)NC(CC(C)C)C(=O)NC(Cc1ccccc1)C(=O)O (centres undefined)
Result: no

Request: Give the logged outcome of this assay for the following compound: O=c1c(O)cccc2c(C3Oc4cc(O)cc(O)c4CC3O)cc(O)c(O)c12 (centres undefined)
Result: yes

Request: Give the logged outcome of this assay for the following compound: CC(=O)O[C@@H]1c2c(ccc3ccc(=O)oc23)OC(C)(C)[C@@H]1OC(=O)CC(C)C
Result: no

---

- PROTOCOL_DESCRIPTION: chemical genetic growth profiling, strain panel (AID 1159580);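 further: tested at 20 µM; growth read once vehicle control cultures reached saturation at 30 °C; 1 = growth at the plate median or of vehicle wells; lower values mean less growth of the strain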
- RECORDED_CONDITIONS: S. cerevisiae deletion strains, growth OD, locus YLR268W, strain sec22, active compounds read low
Hit rate of the full screen: of about 5,500 compounds, about 2,000 (36%) were called active. Another 18% or so got no clear call; they are omitted. The list shows a part of the results.
Binary label based on normalized growth with cut-off 1: below gives yes, not below gives no.

Request: Here's an entry: CC1Cc2ccccc2N1NC(=O)c1ccc(Cl)c(S(N)(=O)=O)c1 (configuration not stated) . Is its normalized growth below 1?
Result: no

Request: Here's an entry: CC1CCCC(C)N1NC(=O)c1ccc(Cl)c(S(N)(=O)=O)c1 (configuration not stated) . Is its normalized growth below 1?
Result: yes

Request: Here's an entry: COc1ccc(-c2cc(=O)c3c(O)c(OC)c(OC)cc3o2)cc1O . Is its normalized growth below 1?
Result: yes
